meta.source: patent US8980848B2

# target: Pgp (LCC6MDR cells) (Homo sapiens)
# Sequence (P08183 whole entry): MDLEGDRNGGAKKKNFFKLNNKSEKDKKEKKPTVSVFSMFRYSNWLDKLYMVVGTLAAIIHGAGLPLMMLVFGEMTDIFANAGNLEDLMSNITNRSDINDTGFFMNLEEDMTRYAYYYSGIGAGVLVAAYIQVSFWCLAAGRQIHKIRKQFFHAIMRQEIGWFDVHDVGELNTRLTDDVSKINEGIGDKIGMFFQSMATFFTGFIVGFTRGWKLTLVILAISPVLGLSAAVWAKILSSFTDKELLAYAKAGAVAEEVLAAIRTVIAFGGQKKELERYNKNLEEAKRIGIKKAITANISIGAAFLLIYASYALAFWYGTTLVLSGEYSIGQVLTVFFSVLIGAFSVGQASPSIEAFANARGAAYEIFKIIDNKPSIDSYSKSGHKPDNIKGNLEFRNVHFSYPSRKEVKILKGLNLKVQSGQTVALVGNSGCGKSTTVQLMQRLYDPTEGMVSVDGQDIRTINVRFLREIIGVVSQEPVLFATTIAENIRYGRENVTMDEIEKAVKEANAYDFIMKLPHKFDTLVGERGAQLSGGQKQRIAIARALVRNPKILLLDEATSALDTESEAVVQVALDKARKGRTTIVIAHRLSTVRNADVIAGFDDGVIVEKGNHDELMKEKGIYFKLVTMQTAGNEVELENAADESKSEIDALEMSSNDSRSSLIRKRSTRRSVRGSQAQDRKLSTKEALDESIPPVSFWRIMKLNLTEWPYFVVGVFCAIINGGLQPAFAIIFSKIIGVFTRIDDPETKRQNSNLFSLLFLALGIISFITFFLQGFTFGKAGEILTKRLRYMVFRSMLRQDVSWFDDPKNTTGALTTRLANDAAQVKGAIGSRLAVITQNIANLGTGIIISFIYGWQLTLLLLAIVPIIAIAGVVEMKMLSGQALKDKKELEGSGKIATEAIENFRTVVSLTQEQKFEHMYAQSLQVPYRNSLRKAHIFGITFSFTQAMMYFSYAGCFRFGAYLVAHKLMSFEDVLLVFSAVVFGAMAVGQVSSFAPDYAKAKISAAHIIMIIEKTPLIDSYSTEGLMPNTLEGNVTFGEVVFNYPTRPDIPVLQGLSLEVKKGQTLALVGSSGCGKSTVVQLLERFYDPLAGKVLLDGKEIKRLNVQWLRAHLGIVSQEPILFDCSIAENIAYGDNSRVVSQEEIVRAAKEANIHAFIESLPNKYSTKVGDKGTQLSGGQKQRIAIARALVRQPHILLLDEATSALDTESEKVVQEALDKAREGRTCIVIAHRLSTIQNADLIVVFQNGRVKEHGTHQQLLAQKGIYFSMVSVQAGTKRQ
# procedure.details: Cell proliferation assay: Pgp-modulating activity, reversal of anticancer drug resistance in LCC6MDR cells
# experimental.context: RF = (IC50 without modulator)/(IC50 with 0.5 μM modulator), paclitaxel, LCC6MDR

{"compound": "CN(C)c1cccc2c(S(=O)(=O)N(CCOCCOc3ccc(-c4cc(=O)c5ccccc5o4)cc3)CCOCCOc3ccc(-c4cc(=O)c5ccccc5o4)cc3)cccc12 [Compound 25b]", "target": "Pgp (LCC6MDR cells) (Homo sapiens)", "RF (Relative Fold), cpd at 0.5 μM": "(1.4)"}

----------
Kindly state IC50 at 72 h for each of the entries shown.
# procedure.details: Cytotoxicity of flavonoid dimers, L929 mouse fibroblast
# Type: cell-based
# experimental.context: mouse, L929 fibroblast cells, IC50 of compound alone, 72 hrs, mouse fibroblast
# Procedure: (b) Tumor Cell Line Cytotoxicity. The tumor cytotoxicity assays of flavonoid dimers were performed against LCC6, LCC6MDR and L929 cell lines. […] In brief, LCC6, LCC6MDR and L929 cells were seeded into 96-well flat bottom microtiter plate at 1×10^4 cells per well in a final volume of 100 μL media, respectively. A graded dose of flavonoid dimers was added into wells. The plate was incubated at 37° C. for 72 hrs at the atmosphere 5% CO2 in the air. The % of survivors was determined.
One number for each entry, in µM.

Please review the following examples before continuing.
{"molecule": "O=c1cc(-c2ccc(OCCOCCN(CCOCCOc3ccc(-c4cc(=O)c5ccccc5o4)cc3)Cc3ccccc3)cc2)oc2ccccc12", "result.value": 85}
{"molecule": "O=c1cc(-c2ccc(OCCOCCN(CCOCCOc3ccc(-c4cc(=O)c5ccccc5o4)cc3)Cc3ccc(F)cc3)cc2)oc2ccccc12", "result.value": 19.7}
{"molecule": "COc1cc(-c2cc(=O)c3ccccc3o2)ccc1OCCOCCN(CCOCCOc1ccc(-c2cc(=O)c3ccccc3o2)cc1OC)C(=O)OC(C)(C)C [Compound 16b]", "result.value": 33.3}
{"molecule": "O=c1cc(-c2ccc(OCCOCCN(CCOCCOc3ccc(-c4cc(=O)c5ccccc5o4)cc3)Cc3ccc4ccccc4c3)cc2)oc2ccccc12", "result.value": 5.1}

Turning now to a further molecule:
Lookup: Name the reported IC50 at 72 h value associated with the molecule C=Cc1ccc(CN(CCOCCOc2ccc(-c3cc(=O)c4ccccc4o3)cc2)CCOCCOc2ccc(-c3cc(=O)c4ccccc4o3)cc2)cc1
Found: 7.4

----------
So I've got a bunch of molecules here, and I need their IC50 at 72 h values.
# procedure.details: Tumor cell line cytotoxicity of flavonoid dimers, LCC6MDR
# Format: cell-based, human
# experimental.context: human, LCC6MDR cells, IC50 of compound alone

{"molecule": "O=c1cc(-c2ccc(OCCOCCN(CCOCCOc3ccc(-c4cc(=O)c5ccccc5o4)cc3)Cc3ccc(-c4ccccc4)cc3)cc2)oc2ccccc12 [Compound 57]", "result.value": "> 62 µM"}
{"molecule": "O=c1c(OCc2ccccc2)c(-c2ccc(OCCOCCNCCOCCOc3ccc(-c4oc5ccccc5c(=O)c4OCc4ccccc4)cc3)cc2)oc2ccccc12 [Compound 12e]", "result.value": "4.4 µM"}
{"molecule": "O=C(c1ccccc1)c1ccc(CN(CCOCCOc2ccc(-c3cc(=O)c4ccccc4o3)cc2)CCOCCOc2ccc(-c3cc(=O)c4ccccc4o3)cc2)cc1 [Compound 61]", "result.value": "> 100 µM"}
{"molecule": "O=c1cc(-c2ccc(OCCOCCN(CCOCCOc3ccc(-c4cc(=O)c5ccccc5o4)cc3)Cc3ccncc3Br)cc2)oc2ccccc12 [Compound 64d]", "result.value": "> 100 µM"}
{"molecule": "O=c1cc(-c2ccc(OCCOCCN(CCOCCOc3ccc(-c4cc(=O)c5ccccc5o4)cc3)Cc3ccnc4ccccc34)cc2)oc2ccccc12 [Compound 64f]", "result.value": "> 100 µM"}

Lookup: # query: IC50 at 72 h of entry Cc1ccc2oc(-c3ccc(OCCOCCNCCOCCOc4ccc(-c5cc(=O)c6cc(C)ccc6o5)cc4)cc3)cc(=O)c2c1 [Compound 12c]
Found: 7 µM

----------
# procedure.details: Tumor cell line cytotoxicity of flavonoid dimers, LCC6MDR
# Type: cell-based, human
# experimental.context: human, LCC6MDR cells, IC50 of compound alone
Give measured IC50 at 72 h for each item. Keep answers brief.

{"molecule": "O=c1cc(-c2ccc(OCCOCCN(CCOCCOc3ccc(-c4cc(=O)c5ccccc5o4)cc3)CC3CCCCC3)cc2)oc2ccccc12", "IC50 at 72 h": "7.9 µM"}
{"molecule": "CC(C)(C)OC(=O)Nc1ccc(CN(CCOCCOc2ccc(-c3cc(=O)c4ccccc4o3)cc2)CCOCCOc2ccc(-c3cc(=O)c4ccccc4o3)cc2)cc1", "IC50 at 72 h": "> 50 µM"}
{"molecule": "O=c1cc(-c2ccc(OCCOCCN(CCCc3ccccc3)CCOCCOc3ccc(-c4cc(=O)c5ccccc5o4)cc3)cc2)oc2ccccc12", "IC50 at 72 h": "> 100 µM"}
{"molecule": "O=c1cc(-c2ccc(OCCOCCN(CCOCCOc3ccc(-c4cc(=O)c5ccccc5o4)cc3)Cc3ccncc3)cc2)oc2ccccc12", "IC50 at 72 h": "> 100 µM"}
{"molecule": "COc1cc(-c2cc(=O)c3ccccc3o2)ccc1OCCOCCNCCOCCOc1ccc(-c2cc(=O)c3ccccc3o2)cc1OC [Compound 12b]", "IC50 at 72 h": "23.8 µM"}
{"molecule": "CN(C)c1cccc2c(S(=O)(=O)N(CCOCCOc3ccc(-c4cc(=O)c5ccccc5o4)cc3)CCOCCOc3ccc(-c4cc(=O)c5ccccc5o4)cc3)cccc12 [Compound 25b]", "IC50 at 72 h": "> 100 µM"}
{"molecule": "COC(=O)c1ccc(CN(CCOCCOc2ccc(-c3cc(=O)c4ccccc4o3)cc2)CCOCCOc2ccc(-c3cc(=O)c4ccccc4o3)cc2)cc1", "IC50 at 72 h": "64.8 µM"}
{"molecule": "O=c1cc(-c2ccc(OCCOCCN(CCOCCOc3ccc(-c4cc(=O)c5ccccc5o4)cc3)Cc3ccc(O)cc3)cc2)oc2ccccc12 [Compound 42d]", "IC50 at 72 h": "5.3 µM"}
{"molecule": "O=c1cc(-c2ccc(OCCOCCN(CCOCCOc3ccc(-c4cc(=O)c5ccccc5o4)cc3)Cc3ccc(F)cc3F)cc2)oc2ccccc12", "IC50 at 72 h": "> 100 µM"}
{"molecule": "O=c1cc(-c2ccc(OCCOCCN(CCOCCOc3ccc(-c4cc(=O)c5ccccc5o4)cc3)Cc3ccc(OC(F)(F)F)cc3)cc2)oc2ccccc12 [Compound 42b]", "IC50 at 72 h": "> 100 µM"}

For each of the molecules below, state IC50 at 72 h.
1. O=C1c2ccccc2C(=O)N1CCN(CCOCCOc1ccc(-c2cc(=O)c3ccccc3o2)cc1)CCOCCOc1ccc(-c2cc(=O)c3ccccc3o2)cc1 [Compound 23c]
2. O=c1cc(-c2ccc(OCCOCCNCCOCCOc3ccc(-c4cc(=O)c5cc(F)ccc5o4)cc3)cc2)oc2ccc(F)cc12 [Compound 12f]

Found:
4.9 µM
3.3 µM

----------
# target: Pgp (LCC6MDR cells) (Homo sapiens)
# procedure.details: Cell proliferation assay: Pgp-modulating activity, reversal of anticancer drug resistance in LCC6MDR cells
# experimental.context: RF = (IC50 without modulator)/(IC50 with 0.5 μM modulator), paclitaxel, LCC6MDR

{"compound": "O=c1cc(-c2ccc(OCCOCCN(CCOCCOc3ccc(-c4cc(=O)c5ccccc5o4)cc3)Cc3ccncn3)cc2)oc2ccccc12 [Compound 64e]", "target": "Pgp (LCC6MDR cells) (Homo sapiens)", "RF (Relative Fold), cpd at 0.5 μM": "(8.3)"}
{"compound": "O=c1cc(-c2ccc(OCCOCCN(CCOCCOc3ccc(-c4cc(=O)c5ccccc5o4)cc3)Cc3ccc4c(c3)OCO4)cc2)oc2ccccc12 [Compound 42e]", "target": "Pgp (LCC6MDR cells) (Homo sapiens)", "RF (Relative Fold), cpd at 0.5 μM": "(31.2)"}
{"compound": "O=c1cc(-c2ccc(OCCOCCN(CCOCCOc3ccc(-c4cc(=O)c5ccccc5o4)cc3)Cc3ccc(F)cc3)cc2)oc2ccccc12", "target": "Pgp (LCC6MDR cells) (Homo sapiens)", "RF (Relative Fold), cpd at 0.5 μM": "(31.2)"}
{"compound": "Cc1ccc(S(=O)(=O)N(CCOCCOc2ccc(-c3cc(=O)c4ccccc4o3)cc2)CCOCCOc2ccc(-c3cc(=O)c4ccccc4o3)cc2)cc1 [Compound 25a]", "target": "Pgp (LCC6MDR cells) (Homo sapiens)", "RF (Relative Fold), cpd at 0.5 μM": "(5.8)"}

----------
# target: Pgp (LCC6MDR cells) (Homo sapiens)
# procedure.details: Cell proliferation assay: Pgp-modulating activity, reversal of anticancer drug resistance in LCC6MDR cells
# experimental.context: EC50 of compounds for reversing anticancer drug resistance (nM), Paclitaxel, LCC6MDR
For each of the compounds below, state its EC50.
Answer shape: numeric part, then the unit.

{"compound": "CC(=O)Oc1ccc(CN(CCOCCOc2ccc(-c3cc(=O)c4ccccc4o3)cc2)CCOCCOc2ccc(-c3cc(=O)c4ccccc4o3)cc2)cc1 [Compound 42c]", "EC50": "140 nM"}

For every record below, what is its EC50?
1. O=c1cc(-c2ccc(OCCOCCN(CCOCCOc3ccc(-c4cc(=O)c5ccccc5o4)cc3)Cc3ccc(Cl)cc3)cc2)oc2ccccc12
2. Nc1ccc(CN(CCOCCOc2ccc(-c3cc(=O)c4ccccc4o3)cc2)CCOCCOc2ccc(-c3cc(=O)c4ccccc4o3)cc2)cc1
3. O=c1cc(-c2ccc(OCCOCCN(CCOCCOc3ccc(-c4cc(=O)c5ccccc5o4)cc3)Cc3ccc(-c4ccccc4)cc3)cc2)oc2ccccc12
4. O=c1cc(-c2ccc(OCCOCCN(CCOCCOc3ccc(-c4cc(=O)c5ccccc5o4)cc3)Cc3ccc([N+](=O)[O-])cc3)cc2)oc2ccccc12
5. O=c1cc(-c2ccc(OCCOCCN(CCOCCOc3ccc(-c4cc(=O)c5ccccc5o4)cc3)Cc3c(F)cccc3F)cc2)oc2ccccc12

Found:
["177 nM", "244 nM", "72 nM", "189 nM", "237 nM"]

For each entry beneath this line, provide reported EC50.
1. CC(C)(C)OC(=O)N(CCOCCOc1ccc(-c2cc(=O)c3ccccc3o2)cc1)CCOCCOc1ccc(-c2cc(=O)c3ccccc3o2)cc1 [Compound 16a]
2. O=c1cc(-c2ccc(OCCOCCN(CCOCCOc3ccc(-c4cc(=O)c5ccccc5o4)cc3)Cc3cccc(F)c3)cc2)oc2ccccc12
3. O=c1cc(-c2ccc(OCCOCCN(CCOCCOc3ccc(-c4cc(=O)c5ccccc5o4)cc3)Cc3ccc(O)cc3)cc2)oc2ccccc12 [Compound 42d]
4. CC(C)(C)OC(=O)Nc1ccc(CN(CCOCCOc2ccc(-c3cc(=O)c4ccccc4o3)cc2)CCOCCOc2ccc(-c3cc(=O)c4ccccc4o3)cc2)cc1
5. O=c1cc(-c2ccc(OCCOCCN(CCOCCOc3ccc(-c4cc(=O)c5ccccc5o4)cc3)Cc3ccc4ccccc4c3)cc2)oc2ccccc12
6. O=c1cc(-c2ccc(OCCOCCNCCOCCOc3ccc(-c4cc(=O)c5ccccc5o4)cc3)cc2)oc2ccccc12 [Compound 12a]

Found:
1: 320 nM; 2: 258 nM; 3: 141 nM; 4: 188 nM; 5: 92 nM; 6: 305 nM
